# System: PPARg:RXRa 270nM:90nM, anti-RXR (NR concentration 270 nM, RXRa partner concentration 90 nM)
# PROTOCOL_NOTES: PBM binding z-score (relative to random genomic background probes); higher = stronger binding; sequences stand for … in GC…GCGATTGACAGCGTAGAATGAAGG
Would you please tag the item Condition met when its PBM binding z-score is 4 or above, and Condition not met when it is below?

Sample answers from the record:
SEQUENCE_TEXT	CATEGORY_LABEL
TTATCAAGGTGAAGGTCGTTGATCCCTCTGTAGA	Condition not met
TCAGACAGGTGAAGCTAACTCAGGTACGCAGTCG	Condition not met
CCGAGTAGGTTATGGGGCATTAAGGCAACGGTGA	Condition met

Assess whether reported PBM binding z-score for `CCGAGTAGGTCATGGGGCATTCAGGCAACGGTGA` sits at 4 or higher. Condition met

Does the sequence `CCTAGTTTGTCAAGGTCACACACGCTATAGGTAC` have recorded PBM binding z-score that is 4 or more? Condition not met

Hello, I need to know if `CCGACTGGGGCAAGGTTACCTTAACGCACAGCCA` has measured PBM binding z-score not below 4. Thanks! Condition not met

====

# Test system: PXR homodimer (NR concentration 270 nM)
# PROTOCOL_NOTES: PBM binding z-score (relative to random genomic background probes); higher = stronger binding; sequences stand for … in GC…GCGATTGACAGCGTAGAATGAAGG
MEASUREMENT_NAME: PBM binding z-score
# answer = number (no unit)

SEQUENCE_TEXT	SYSTEM_UNDER_TEST	DATA_VALUE
CAGCCTAGGTCAGGGCCAGTATTGGAGGAACGTT	PXR homodimer (NR concentration 270 nM)	-0.593
CATACAGGGTCAGCTAGGCCACAGTAGGGACGGC	PXR homodimer (NR concentration 270 nM)	0.181
CGAACCAGGTCATCCAGGACAGTGAATACATTGA	PXR homodimer (NR concentration 270 nM)	3.52

Quick one: PBM binding z-score for `ACTCGGAGGACAAAGGTCATAGCTACGCCAGTGA` ? 0.775

What measured PBM binding z-score goes with `ACTCGGAGGACAAGGGTCAGAGCTACGCCAGTGA` ? -0.342

====

Consider the following sequences and their measured PBM binding z-score readings.
# Test system: RXRa homodimer (NR concentration 180 nM)
# PROTOCOL_NOTES: PBM binding z-score (relative to random genomic background probes); higher = stronger binding; sequences stand for … in GC…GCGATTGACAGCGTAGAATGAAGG

Known results for sequences:
SEQUENCE_TEXT	PBM binding z-score
GCGACTGGCGCAAAGCAGGTTACCATAAGGTTGG	-0.0574
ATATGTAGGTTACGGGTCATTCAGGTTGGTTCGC	4.31
ATCTCTAGGTAAAATTTCAGTGAATCCCGAGGAT	0.367
TCCTATAGGTAAAGGTGAAAGTCGAACGATATGA	1.98
TCGAATAGGTTAGTCGGGGCATTCAGCCAACATA	0.583

Consider the sequence shown here: `CAGCCAAGGTCAGGGCCAGTATAGGAGGAACGTT` What is its recorded PBM binding z-score? 4

Which PBM binding z-score is listed for `CCTTACGGGTCATTGACAGGTTATAGCATTTGGA` ? 5.07

Quick one: PBM binding z-score of `CCCAGCAGGCCAGGGTCACTCAAGCATTTCGCTT` ? 3.26

PBM binding z-score lookup needed for `TCTTGTAGATCAAAGGTTAAGATAGCCGAAGCCT` , thanks. 3.56

Reported PBM binding z-score for `TGAATGAGATTATAAGATCAGGGAACGTTGCAAA` : what is it? -0.35

Give the measured PBM binding z-score of `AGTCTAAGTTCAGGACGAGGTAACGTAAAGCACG` . 1.57

Any idea what PBM binding z-score was measured for `CGTCCAAGGTCAAAAGTCAGTGAAGAGATGACGG` ? 6.1

Query: PBM binding z-score; subject: `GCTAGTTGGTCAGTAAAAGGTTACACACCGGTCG` 1.59

What does the data say about its PBM binding z-score? Entry: `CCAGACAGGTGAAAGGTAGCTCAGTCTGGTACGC` 1.07

Quick check: PBM binding z-score of `TAGCCTAGGTCAAGGGCCAGTATACCACGCGAAC` ? 3.58

# get_value(readout='PBM binding z-score', item= `GGAACGAGGGAATTCGAGTTGATAGCATGGCGAT` ) -0.105

Query (sequence): `CGTCAAAGTTCAAAGTAACGTAACAGAAAGCAGC` ; field requested: PBM binding z-score 4.88

Would you kindly share the measured PBM binding z-score for `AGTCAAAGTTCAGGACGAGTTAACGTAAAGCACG` ? 3.19

Look at this sequence and give its reported PBM binding z-score. `CGAACTAGGTCATCCAGGACACTGAATACATTGA` 3.13

Entry `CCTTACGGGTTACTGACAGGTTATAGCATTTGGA` has what PBM binding z-score? 1.54

Data request, read-out PBM binding z-score, for `CAAACTAGGTGAAGAGGTCAAAGTCCGCTTCCCG` 5.48

Need PBM binding z-score of `TCATATTGGTAAAGGTGAAAGTCGAACGATATGA` , thanks. 1.79
